# System: NCI-H2342
# Test method notes: relative viability (nuclei count vs DMSO), 5 days (fraction); higher = more cells survive
# Assay setup: first compound 0.005 µM
Value type: relative viability

Example compounds with recorded relative viability:
Compound: Nc1ccn([C@@H]2O[C@H](CO)[C@@H](O)[C@@H]2O)c(=O)n1 [Cytarabine] + O=C(CCCCCCC(=O)Nc1ccccc1)NO [Vorinostat] (partner 1 µM)
Observed result: 0.718

Compound: COc1cc2nccc(Oc3ccc(NC(=O)Nc4cc(C)on4)c(Cl)c3)c2cc1OC [Tivozanib] + Nc1ncn([C@H]2C[C@H](O)[C@@H](CO)O2)c(=O)n1 [Decitabine] (partner 2 µM)
Observed result: 0.678

Moving on to the next compound.
[Q] Which relative viability is listed for Nc1ccn([C@@H]2O[C@H](CO)[C@@H](O)[C@@H]2O)c(=O)n1 [Cytarabine] + Cc1nc(Nc2ncc(C(=O)Nc3c(C)cccc3Cl)s2)cc(N2CCN(CCO)CC2)n1 [Dasatinib] (partner 0.075 µM) ?
[A] 0.309

* * *

# Tested on: NCI-H2170
# Test method notes: relative viability (nuclei count vs DMSO), 5 days (fraction); higher = more cells survive
# Assay setup: first compound 1.265 µM
Value type: relative viability
One number for each entry.

Here are 6 compounds. What values of relative viability were reported for them?
1. Cc1sc2c(c1C)C(c1ccc(Cl)cc1)=N[C@@H](CC(=O)OC(C)(C)C)c1nnc(C)n1-2 [JQ1] + O=C(c1cc(Cc2n[nH]c(=O)c3ccccc23)ccc1F)N1CCN(C(=O)C2CC2)CC1 [Olaparib] (partner 8 µM)
2. Cc1sc2c(c1C)C(c1ccc(Cl)cc1)=N[C@@H](CC(=O)OC(C)(C)C)c1nnc(C)n1-2 [JQ1] + Cc1cc(Nc2cc(N3CCN(C)CC3)nc(Sc3ccc(NC(=O)C4CC4)cc3)n2)n[nH]1 [Tozasertib] (partner 0.1 µM)
3. Cc1sc2c(c1C)C(c1ccc(Cl)cc1)=N[C@@H](CC(=O)OC(C)(C)C)c1nnc(C)n1-2 [JQ1] + CC1(C)CCC(c2ccc(Cl)cc2)=C(CN2CCN(c3ccc(C(=O)NS(=O)(=O)c4ccc(N[C@H](CCN5CCOCC5)CSc5ccccc5)c(S(=O)(=O)C(F)(F)F)c4)cc3)CC2)C1 [Navitoclax] (partner 0.5 µM)
4. Cc1sc2c(c1C)C(c1ccc(Cl)cc1)=N[C@@H](CC(=O)OC(C)(C)C)c1nnc(C)n1-2 [JQ1] + Nc1nc2[nH]cc(CCc3ccc(C(=O)N[C@@H](CCC(=O)O)C(=O)O)cc3)c2c(=O)[nH]1 [Pemetrexed] (partner 0.2 µM)
5. Cc1sc2c(c1C)C(c1ccc(Cl)cc1)=N[C@@H](CC(=O)OC(C)(C)C)c1nnc(C)n1-2 [JQ1] + Cc1nc(Nc2ncc(C(=O)Nc3c(C)cccc3Cl)s2)cc(N2CCN(CCO)CC2)n1 [Dasatinib] (partner 0.075 µM)
6. Cc1sc2c(c1C)C(c1ccc(Cl)cc1)=N[C@@H](CC(=O)OC(C)(C)C)c1nnc(C)n1-2 [JQ1] + C[C@@H](Oc1cc(-c2cnn(C3CCNCC3)c2)cnc1N)c1c(Cl)ccc(F)c1Cl [Crizotinib] (partner 1 µM)

[A]
0.226
0.352
0.279
0.238
0.334
0.599

* * *

So I've got a bunch of compounds here, and I need their relative viability values.
# Test system: NCI-H650
# Test method notes: relative viability (nuclei count vs DMSO), 5 days (fraction); higher = more cells survive
# Assay setup: first compound 15.81 µM
Answers are plain numbers.

Example compounds with recorded relative viability:
Compound: O=C(O)CCCCC(CCSCc1ccccc1)SCc1ccccc1 (centres undefined) [CPI-613] + CC(=O)c1c(C)c2cnc(Nc3ccc(N4CCNCC4)cn3)nc2n(C2CCCC2)c1=O [Palbociclib] (partner 0.5 µM)
Value type: relative viability
Observed result: 0.312
--
Compound: O=C(O)CCCCC(CCSCc1ccccc1)SCc1ccccc1 (centres undefined) [CPI-613] + Cc1nc(Nc2ncc(C(=O)Nc3c(C)cccc3Cl)s2)cc(N2CCN(CCO)CC2)n1 [Dasatinib] (partner 0.075 µM)
Value type: relative viability
Observed result: 0.366
--
Compound: O=C(O)CCCCC(CCSCc1ccccc1)SCc1ccccc1 (centres undefined) [CPI-613] + O=C(CCCCCCC(=O)Nc1ccccc1)NO [Vorinostat] (partner 1 µM)
Value type: relative viability
Observed result: 0.365

[Q] Which relative viability is listed for O=C(O)CCCCC(CCSCc1ccccc1)SCc1ccccc1 (centres undefined) [CPI-613] + C[C@@H](Oc1cc(-c2cnn(C3CCNCC3)c2)cnc1N)c1c(Cl)ccc(F)c1Cl [Crizotinib] (partner 1 µM) ?
[A] 0.703

* * *

# Tested on: NCI-H2228
# Test method notes: relative viability (nuclei count vs DMSO), 5 days (fraction); higher = more cells survive
# Assay setup: first compound 0.4 µM
So I've got a bunch of compounds here, and I need their relative viability values.
Answers are plain numbers.

Compound: Cc1sc2c(c1C)C(c1ccc(Cl)cc1)=N[C@@H](CC(=O)OC(C)(C)C)c1nnc(C)n1-2 [JQ1] + CCNC(=O)c1noc(-c2cc(C(C)C)c(O)cc2O)c1-c1ccc(CN2CCOCC2)cc1 [Luminespib] (partner 0.01 µM)
relative viability: 0.0885
--
Compound: Cc1sc2c(c1C)C(c1ccc(Cl)cc1)=N[C@@H](CC(=O)OC(C)(C)C)c1nnc(C)n1-2 [JQ1] + N=C(N)NC(=N)NCCc1ccccc1 [Phenformin] (partner 250 µM)
relative viability: 0.297

Here are 3 compounds. What values of relative viability were reported for them?
1. Cc1sc2c(c1C)C(c1ccc(Cl)cc1)=N[C@@H](CC(=O)OC(C)(C)C)c1nnc(C)n1-2 [JQ1] + C[C@@H](Oc1cc(-c2cnn(C3CCNCC3)c2)cnc1N)c1c(Cl)ccc(F)c1Cl [Crizotinib] (partner 1 µM)
2. Cc1sc2c(c1C)C(c1ccc(Cl)cc1)=N[C@@H](CC(=O)OC(C)(C)C)c1nnc(C)n1-2 [JQ1] + Cc1nc(Nc2ncc(C(=O)Nc3c(C)cccc3Cl)s2)cc(N2CCN(CCO)CC2)n1 [Dasatinib] (partner 0.075 µM)
3. Cc1sc2c(c1C)C(c1ccc(Cl)cc1)=N[C@@H](CC(=O)OC(C)(C)C)c1nnc(C)n1-2 [JQ1] + O=C(c1cc(Cc2n[nH]c(=O)c3ccccc23)ccc1F)N1CCN(C(=O)C2CC2)CC1 [Olaparib] (partner 8 µM)

[A]
1: 0.38; 2: 0.515; 3: 0.356

[Q] Which relative viability is listed for Cc1sc2c(c1C)C(c1ccc(Cl)cc1)=N[C@@H](CC(=O)OC(C)(C)C)c1nnc(C)n1-2 [JQ1] + CS(=O)(=O)CCNCc1ccc(-c2ccc3ncnc(Nc4ccc(OCc5cccc(F)c5)c(Cl)c4)c3c2)o1 [Lapatinib] (partner 2 µM) ?
[A] 0.751

* * *

# System: SW 1573
# Test method notes: relative viability (nuclei count vs DMSO), 5 days (fraction); higher = more cells survive
# Assay setup: first compound 4 µM
So I've got a bunch of compounds here, and I need their relative viability values.
Numbers only.

Example compounds with recorded relative viability:
Compound: Cc1sc2c(c1C)C(c1ccc(Cl)cc1)=N[C@@H](CC(=O)OC(C)(C)C)c1nnc(C)n1-2 [JQ1] + COc1cc2c(Oc3ccc(NC(=O)C4(C(=O)Nc5ccc(F)cc5)CC4)cc3F)ccnc2cc1OCCCN1CCOCC1 [Foretinib] (partner 0.25 µM)
Assayed target: SW 1573
Observed result: 0.384
//
Compound: Cc1sc2c(c1C)C(c1ccc(Cl)cc1)=N[C@@H](CC(=O)OC(C)(C)C)c1nnc(C)n1-2 [JQ1] + CC(C)C[C@H](NC(=O)[C@H](Cc1ccccc1)NC(=O)c1cnccn1)B(O)O [Bortezomib] (partner 0.002 µM)
Assayed target: SW 1573
Observed result: 0.351
//
Compound: Cc1sc2c(c1C)C(c1ccc(Cl)cc1)=N[C@@H](CC(=O)OC(C)(C)C)c1nnc(C)n1-2 [JQ1] + Cc1nc(Nc2ncc(C(=O)Nc3c(C)cccc3Cl)s2)cc(N2CCN(CCO)CC2)n1 [Dasatinib] (partner 0.075 µM)
Assayed target: SW 1573
Observed result: 0.23

Moving on to the next compound.
[Q] Kindly state the measured relative viability obtained for Cc1sc2c(c1C)C(c1ccc(Cl)cc1)=N[C@@H](CC(=O)OC(C)(C)C)c1nnc(C)n1-2 [JQ1] + C[C@]1(O)C[C@@H](c2nc(-c3ccc4ccc(-c5ccccc5)nc4c3)c3c(N)nccn32)C1 [Linsitinib] (partner 1 µM) with SW 1573.
[A] 0.323

* * *

# Tested on: NCI-H1437
# Test method notes: relative viability (nuclei count vs DMSO), 5 days (fraction); higher = more cells survive
# Assay setup: first compound 0.253 µM
Value type: relative viability
Answers are plain numbers.

Example compounds with recorded relative viability:
Compound: Cc1cnc(-c2cnc(NCCNc3ccc(C#N)cn3)nc2-c2ccc(Cl)cc2Cl)[nH]1 + CC(=O)Nc1cccc(-n2c(=O)n(C3CC3)c(=O)c3c(Nc4ccc(I)cc4F)n(C)c(=O)c(C)c32)c1 [Trametinib] (partner 0.02 µM)
relative viability: 0.492
--
Compound: Cc1cnc(-c2cnc(NCCNc3ccc(C#N)cn3)nc2-c2ccc(Cl)cc2Cl)[nH]1 + CC(C)C[C@H](NC(=O)[C@H](Cc1ccccc1)NC(=O)c1cnccn1)B(O)O [Bortezomib] (partner 0.002 µM)
relative viability: 0.475
--
Compound: O=c1[nH]c2ccccc2n1C1CCN(CCCC(c2ccc(F)cc2)c2ccc(F)cc2)CC1 [Pimozide] + C[C@@H](Oc1cc(-c2cnn(C3CCNCC3)c2)cnc1N)c1c(Cl)ccc(F)c1Cl [Crizotinib] (partner 1 µM)
relative viability: 0.878
--
Compound: Cc1cnc(-c2cnc(NCCNc3ccc(C#N)cn3)nc2-c2ccc(Cl)cc2Cl)[nH]1 + O=C(c1cc(Cc2n[nH]c(=O)c3ccccc23)ccc1F)N1CCN(C(=O)C2CC2)CC1 [Olaparib] (partner 8 µM)
relative viability: 0.606
--
Compound: O=c1[nH]c2ccccc2n1C1CCN(CCCC(c2ccc(F)cc2)c2ccc(F)cc2)CC1 [Pimozide] + O=C(CCCCCCC(=O)Nc1ccccc1)NO [Vorinostat] (partner 1 µM)
relative viability: 0.763
--
Compound: O=c1[nH]c2ccccc2n1C1CCN(CCCC(c2ccc(F)cc2)c2ccc(F)cc2)CC1 [Pimozide] + Nc1ncn([C@H]2C[C@H](O)[C@@H](CO)O2)c(=O)n1 [Decitabine] (partner 2 µM)
relative viability: 0.547
--
Compound: Cc1cnc(-c2cnc(NCCNc3ccc(C#N)cn3)nc2-c2ccc(Cl)cc2Cl)[nH]1 + COc1cc2c(Oc3ccc(NC(=O)C4(C(=O)Nc5ccc(F)cc5)CC4)cc3F)ccnc2cc1OCCCN1CCOCC1 [Foretinib] (partner 0.25 µM)
relative viability: 1.25
--
Compound: O=c1[nH]c2ccccc2n1C1CCN(CCCC(c2ccc(F)cc2)c2ccc(F)cc2)CC1 [Pimozide] + CC(C)C[C@H](NC(=O)[C@H](Cc1ccccc1)NC(=O)c1cnccn1)B(O)O [Bortezomib] (partner 0.002 µM)
relative viability: 0.45
--
Compound: O=c1[nH]c2ccccc2n1C1CCN(CCCC(c2ccc(F)cc2)c2ccc(F)cc2)CC1 [Pimozide] + CCNC(=O)c1noc(-c2cc(C(C)C)c(O)cc2O)c1-c1ccc(CN2CCOCC2)cc1 [Luminespib] (partner 0.01 µM)
relative viability: 1.09
--
Compound: O=c1[nH]c2ccccc2n1C1CCN(CCCC(c2ccc(F)cc2)c2ccc(F)cc2)CC1 [Pimozide] + N=C(N)NC(=N)NCCc1ccccc1 [Phenformin] (partner 250 µM)
relative viability: 0.318

Here are 4 compounds. What values of relative viability were reported for them?
1. Cc1cnc(-c2cnc(NCCNc3ccc(C#N)cn3)nc2-c2ccc(Cl)cc2Cl)[nH]1 + CS(=O)(=O)CCNCc1ccc(-c2ccc3ncnc(Nc4ccc(OCc5cccc(F)c5)c(Cl)c4)c3c2)o1 [Lapatinib] (partner 2 µM)
2. Cc1cnc(-c2cnc(NCCNc3ccc(C#N)cn3)nc2-c2ccc(Cl)cc2Cl)[nH]1 + COc1cccc2cc(-c3nc([C@H]4CC[C@H](C(=O)O)CC4)n4ncnc(N)c34)[nH]c12 [OSI-027] (partner 0.5 µM)
3. O=c1[nH]c2ccccc2n1C1CCN(CCCC(c2ccc(F)cc2)c2ccc(F)cc2)CC1 [Pimozide] + COc1cc2c(Oc3ccc(NC(=O)C4(C(=O)Nc5ccc(F)cc5)CC4)cc3F)ccnc2cc1OCCCN1CCOCC1 [Foretinib] (partner 0.25 µM)
4. O=c1[nH]c2ccccc2n1C1CCN(CCCC(c2ccc(F)cc2)c2ccc(F)cc2)CC1 [Pimozide] + NC(=O)Nc1cc(-c2cccc(F)c2)sc1C(=O)N[C@H]1CCCNC1 [AZD7762] (partner 0.2 µM)

[A]
[0.715, 0.88, 1.21, 1.09]
